- Test system: acute HIV infection of T-lymphoid cells
- assayMethodText: Assay for inhibition of HIV replication (spread assay)
- Assay type: cell-based, HIV-1
- reportedConditions: Human immunodeficiency virus 1, T-lymphoid; read-out: Spread - IC95
Structures can show the parent of a compound that is named as a salt.
readoutKind: IC95
Give the number first and the unit second.

Look over these answered cases.
- molecule: "CC[C@@H](CCC[C@@H](CO)N(CC(C)C)S(=O)(=O)c1ccc(CO)cc1)NC(=O)[C@@H](N)C(c1ccccc1)c1ccccc1 [Example J32, hydrochloride]"
  obsValue: "25 nM"
- molecule: "COC(=O)N[C@H](C(=O)N[C@H](CCC[C@@H](CO)N(CCC(C)C)S(=O)(=O)c1ccc(CO)cc1)C(F)(F)C(F)(F)F)C(c1ccccc1)c1ccccc1 [Example J12]"
  obsValue: "43 nM"

Read the next record carefully.
Can you look up the measured IC95 of COC(=O)N[C@H](C(=O)NC1(CCC[C@@H](CO)N(CCC(C)C)S(=O)(=O)c2ccc(N)cc2)CCCC1)C(c1ccccc1)c1ccccc1 [Example L1] for me? 274 nM
